# assay.details: Solubility of candesartan cilexetil in water from solid state emulsion systems, room temperature
# Type: physicochemical
# conditions.used: thermodynamic from solid, sample weight 50 mg in 100 ml
measured.metric: solubility at 60 min

# query: solubility at 60 min of entry CCOc1nc2cccc(C(=O)OC(C)OC(=O)OC3CCCCC3)c2n1Cc1ccc(-c2ccccc2-c2nnn[nH]2)cc1 (stereo not shown)
< 0.1 µg/mL
